Record form. Attribute: abundance fitness. Fill in for each entry.
B1: Zinc finger homeobox protein 3, residues 2643 to 2698; numbered along this chain, Q15911 (parent)
chain: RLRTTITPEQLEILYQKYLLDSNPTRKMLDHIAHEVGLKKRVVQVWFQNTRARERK

variants of: B1; assay: abundance fitness (aPCA) (normalised: wild type 0, dead -1); higher = more abundant; growth selection in yeast, the domain comes from the species named; settings: Homo sapiens

Look at this variant and give its reported abundance fitness. "I13K"
-0.096

Look at this variant and give its reported abundance fitness. "S22D"
0.075

Look at this variant and give its reported abundance fitness. "R26W"
0.401

Look at this variant and give its reported abundance fitness. "K17F"
0.528

Look at this variant and give its reported abundance fitness. "K40L"
0.283

Look at this variant and give its reported abundance fitness. "R41M"
-0.078

Look at this variant and give its reported abundance fitness. "I32T"
-0.274

Look at this variant and give its reported abundance fitness. "L2G"
0.136

Look at this variant and give its reported abundance fitness. "H31W"
-0.251

Look at this variant and give its reported abundance fitness. "V42F"
-0.47

Look at this variant and give its reported abundance fitness. "T25G"
-0.394

Look at this variant and give its reported abundance fitness. "I13T"
-0.01

Look at this variant and give its reported abundance fitness. "K40P"
0.258

Look at this variant and give its reported abundance fitness. "T25K"
-0.506

Look at this variant and give its reported abundance fitness. "N23Y"
-0.1

Look at this variant and give its reported abundance fitness. "R41D"
0.773

Look at this variant and give its reported abundance fitness. "R53G"
0.126

Look at this variant and give its reported abundance fitness. "L14C"
-0.886

Look at this variant and give its reported abundance fitness. "K27V"
-0.007

Look at this variant and give its reported abundance fitness. "Q10F"
-0.959

Look at this variant and give its reported abundance fitness. "K39W"
-0.77

Look at this variant and give its reported abundance fitness. "T5V"
-0.172

Look at this variant and give its reported abundance fitness. "R55A"
0.239

Look at this variant and give its reported abundance fitness. "K56Y"
-0.54

Look at this variant and give its reported abundance fitness. "H34F"
-0.114

Look at this variant and give its reported abundance fitness. "R53P"
-0.266

Look at this variant and give its reported abundance fitness. "Q16H"
-0.267

Look at this variant and give its reported abundance fitness. "T4F"
-0.378

Look at this variant and give its reported abundance fitness. "N49P"
-0.778

Look at this variant and give its reported abundance fitness. "Q16V"
0.357

Look at this variant and give its reported abundance fitness. "K40D"
0.006

Look at this variant and give its reported abundance fitness. "K40Y"
0.16

Look at this variant and give its reported abundance fitness. "D30I"
-0.071

Look at this variant and give its reported abundance fitness. "Q48G"
-0.164

Look at this variant and give its reported abundance fitness. "E54A"
-0.478

Look at this variant and give its reported abundance fitness. "L2A"
-0.009

Look at this variant and give its reported abundance fitness. "L11H"
0.028

Origin of the recorded values: the Human Domainome abundance scans (Beltran et al. 2025)
